# credit: ChEMBL document CHEMBL1201862

Answer each item with its documented GI50.
- Test system: OVCAR-4
- TEST: NCI tumour cell line growth inhibition, 48 h
Active and inactive are the calls of the source. Rule as the data show it: active = GI50 up to about 1.1 µM and inactive = higher. Non-standard residues stand in square brackets, D forms with d. Residues, ends and D or L forms follow the SMILES beside them. ξ: configuration not given here. ξLac(3-iPr) = CC(C)CC(O)C(=O)O; NMeV = CN[CH](C(=O)O)C(C)C; NMeA = CN[CH](C)C(=O)O; βAla = NCCC(=O)O

[
  {
    "COMPOUND": "N#CS/C(C(Cl)=C(Cl)Cl)=C(/Cl)[N+](=O)[O-]",
    "GI50": "1.95 µM (inactive)"
  },
  {
    "COMPOUND": "CC(C)(O)C(O)COc1c2c(cc3oc(=O)ccc13)OCO2 (configuration not stated)",
    "GI50": "> 100 µM (inactive)"
  },
  {
    "COMPOUND": "Cc1cc(C)nc(NS(=O)(=O)c2ccc(NC(=O)c3cccn4c(=O)c5ccccc5nc34)cc2)n1",
    "GI50": "27.9 µM (inactive)"
  },
  {
    "COMPOUND": "CCC(C)C1NC(=O)C2CCCN2C(=O)C(CC(C)C)OC(=O)CCNC(=O)C(C)N(C)C(=O)C(C(C)C)N(C)C1=O (configuration not stated) (cyclo([ξLac(3-iPr)]PI[NMeV][NMeA][βAla]); configuration not given here)",
    "GI50": "> 50.7 µM (inactive)"
  },
  {
    "COMPOUND": "CCN1CCCC(NCc2c3ccccc3c(CNC3CCCN(CC)C3)c3ccccc23)C1 (configuration not stated)",
    "GI50": "5.2 µM (inactive)"
  },
  {
    "COMPOUND": "CCCCCCCCCCCCCCCCCCNc1ccn(C2OC(COP(=O)(O)OC3CC(n4cc(F)c(=O)[nH]c4=O)OC3COP(=O)(O)OCC3OC(n4ccc(N)nc4=O)C(O)C3O)C(O)C2O)c(=O)n1 (configuration not stated)",
    "GI50": "41.7 µM (inactive)"
  }
]

Turning now to a further compound:
# lookup: GI50 of C[N+](C)(C)CCCCCc1c2nc(c(CCCCC[N+](C)(C)C)c3ccc([nH]3)c(CCCCC[N+](C)(C)C)c3nc(c(CCCCC[N+](C)(C)C)c4ccc1[nH]4)C=C3)C=C2 > 100 µM (inactive)

###

- Test system: LOX IMVI
- TEST: NCI tumour cell line growth inhibition, 48 h
Active and inactive are the calls of the source. Cut-off read from the data, not from the text of the source: active = GI50 up to about 1.1 µM and inactive = higher.
The reply should be one of these categories: label 1 for active, label 0 for inactive

[
  {
    "COMPOUND": "c1ccc2cc(OCC3CO3)c(OCC3CO3)cc2c1 (configuration not stated)",
    "EXPERIMENTAL TARGET": "LOX IMVI",
    "QUALITATIVE LABEL": "label 1"
  },
  {
    "COMPOUND": "O=C(O)CCCN/C(=C1\\C(=O)C(=O)N(c2ccccc2)C1=O)c1ccccc1",
    "EXPERIMENTAL TARGET": "LOX IMVI",
    "QUALITATIVE LABEL": "label 0"
  },
  {
    "COMPOUND": "N=C(N)SCCON1C(=O)c2ccccc2C1=O",
    "EXPERIMENTAL TARGET": "LOX IMVI",
    "QUALITATIVE LABEL": "label 0"
  },
  {
    "COMPOUND": "C/C(=N\\NC(=S)N(C)C)c1ccccn1",
    "EXPERIMENTAL TARGET": "LOX IMVI",
    "QUALITATIVE LABEL": "label 1"
  },
  {
    "COMPOUND": "CC(C)(Sc1cc(C(C)(C)C)c(O)c(C(C)(C)C)c1)Sc1cc(C(C)(C)C)c(O)c(C(C)(C)C)c1",
    "EXPERIMENTAL TARGET": "LOX IMVI",
    "QUALITATIVE LABEL": "label 0"
  }
]

Outcome logged for O=C1CSC(=S)N1c1ccco1 in this assay: label 0

Outcome logged for Clc1c2nc3ccccc3c-2[nH]c2ccccc12 in this assay: label 0

Outcome logged for O=C(CC1(O)C(=O)Nc2ccccc21)c1ccncc1 (configuration not stated) in this assay: label 0

###

- Test system: Malme-3M
- TEST: NCI tumour cell line growth inhibition, 48 h
Calls of active or inactive are those of the source. Rule as the data show it: active = GI50 up to about 1.1 µM and inactive = higher.
The reply should be one of these categories: active, inactive

# count of solved cases: 8
[
  {
    "MOLECULE": "CCCCCCCCCCCCCCCCSCC(COC)COP(=O)([O-])OCC[N+](C)(C)C (configuration not stated)",
    "QUALITATIVE LABEL": "inactive"
  },
  {
    "MOLECULE": "Cc1ccc(C)c(N2C(=O)C(=O)c3c(C)ccc(C)c32)c1",
    "QUALITATIVE LABEL": "inactive"
  },
  {
    "MOLECULE": "CCOC(=O)Cn1c(=O)c(C)cn(COCCO)c1=O",
    "QUALITATIVE LABEL": "inactive"
  },
  {
    "MOLECULE": "COc1ccc(/N=N/C(=NNC(=O)c2ccc(C)cc2)c2ccc(N(C)C)cc2)cc1",
    "QUALITATIVE LABEL": "inactive"
  },
  {
    "MOLECULE": "C/C(=N\\Nc1nc2ccccc2s1)c1ccc2ccccc2n1",
    "QUALITATIVE LABEL": "inactive"
  },
  {
    "MOLECULE": "CCCCc1c2c(c(C)c3c1C(=O)OC3)Oc1ccccc1O2",
    "QUALITATIVE LABEL": "active"
  },
  {
    "MOLECULE": "Cc1c(-c2coc(-c3ccc([N+](=O)[O-])cc3)n2)c(=O)n(-c2ccccc2)n1C",
    "QUALITATIVE LABEL": "inactive"
  },
  {
    "MOLECULE": "COC(=O)N/N=C(\\C(=O)Nc1cccc([N+](=O)[O-])c1)c1nc2ccc([N+](=O)[O-])cc2nc1O",
    "QUALITATIVE LABEL": "inactive"
  }
]

Outcome logged for O=C(c1ccccc1)C1S(=O)(=O)OCCOS1(=O)=O in this assay: inactive

Outcome logged for CCCCCCCC(CC(=O)NC(CO)C(=O)NC(CO)CC(C)C)OC(=O)CC(CCCCCCC)OC(=O)CC(CCCCCCC)OC1OC(C)C(O)C(OC2OC(C)C(O)C(OC(C)=O)C2O)C1O (configuration not stated) in this assay: inactive

Outcome logged for CCOC(=O)c1[nH]c2nc(SC)nc(NC)c2c1N in this assay: inactive

Outcome logged for N#CC(C#N)=c1ccc(=C2NCC3CCCN23)cc1 (configuration not stated) in this assay: inactive

Outcome logged for CCOC(=O)c1ccc(C)c(/N=N/N(C)C)c1 in this assay: inactive

###

- Tested on: SF-539
- TEST: NCI tumour cell line growth inhibition, 48 h
Calls of active or inactive are those of the source. Cut-off read from the data, not from the text of the source: active = GI50 up to about 1.1 µM and inactive = higher.
Answer each item with its documented GI50.

Look over these answered cases.
[
  {
    "COMPOUND": "CC(=O)NC1=C(Nc2ccc(C)cc2)C(=O)c2ccccc2C1=O",
    "QUANTITY NAME": "GI50",
    "OBSERVED VALUE": "16.2 µM (inactive)"
  },
  {
    "COMPOUND": "O=C(O)/C=C/C(=O)Nc1cccc2c1-c1ccccc1C2=O",
    "QUANTITY NAME": "GI50",
    "OBSERVED VALUE": "3.46 µM (inactive)"
  },
  {
    "COMPOUND": "Nc1ccc(-c2nc3cc(F)ccc3s2)cc1Cl",
    "QUANTITY NAME": "GI50",
    "OBSERVED VALUE": "20.2 µM (inactive)"
  },
  {
    "COMPOUND": "NCCCc1ccc2oc3ccccc3c2c1",
    "QUANTITY NAME": "GI50",
    "OBSERVED VALUE": "21.2 µM (inactive)"
  },
  {
    "COMPOUND": "COC(=O)[C@@]12C3=NO[C@]1(C(=O)OC)C(O[Si](C)(C)C(C)(C)C)C1OC(C)(C)OC1[C@@H]2[C@@H](OCc1ccccc1)CC3 (stereo partly specified)",
    "QUANTITY NAME": "GI50",
    "OBSERVED VALUE": "> 100 µM (inactive)"
  },
  {
    "COMPOUND": "COc1ccc(/C=C/c2cc(OC)c(OC)c(OC)c2)cc1OC",
    "QUANTITY NAME": "GI50",
    "OBSERVED VALUE": "> 86.1 µM (inactive)"
  },
  {
    "COMPOUND": "O=C1CSC(=S)N1c1ccco1",
    "QUANTITY NAME": "GI50",
    "OBSERVED VALUE": "66.7 µM (inactive)"
  },
  {
    "COMPOUND": "Cc1ccc(Cc2n[nH]c(=O)n2Nc2ccccc2)cc1",
    "QUANTITY NAME": "GI50",
    "OBSERVED VALUE": "> 100 µM (inactive)"
  },
  {
    "COMPOUND": "CC(=O)OCCC(O[Si](c1ccccc1)(c1ccccc1)C(C)(C)C)C(C)(C)O (stereo unspecified)",
    "QUANTITY NAME": "GI50",
    "OBSERVED VALUE": "25.4 µM (inactive)"
  },
  {
    "COMPOUND": "COC(=O)C1=C(C[S+]([O-])c2ccc([N+](=O)[O-])cc2[N+](=O)[O-])C2C=CC1C2 (stereo unspecified)",
    "QUANTITY NAME": "GI50",
    "OBSERVED VALUE": "24.3 µM (inactive)"
  }
]

Turning now to a further compound:
Provide the documented GI50 with SF-539 as the system for CC(=O)Oc1ccc2cc(Oc3ccccc3)c(=O)oc2c1 > 100 µM (inactive)
